Could you please report measured viability, T/C for the items listed next?
test system: 317291-083-R-J1-PDC complex spheroid growth; experiment: Anticancer human tumor 317291-083-R-J1-PDC patient-derived soft tissue sarcoma cell line growth inhibition [Asc]; conditions: second compound 0.00949 µM; first compound 0.316 µM; hits give low values;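 further: compound exposure lasted seven days after spheroids formed for three days; 100% = DMSO vehicle control wells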

input: Give its viability, T/C value. Item: CNC(C)C(=O)NC1CN(S(=O)(=O)c2cccc(S(=O)(=O)N3CCC4CCC(C(=O)NC(c5ccccc5)c5ccccc5)N4C(=O)C(NC(=O)C(C)NC)C3)c2)CCC2CCC(C(=O)NC(c3ccccc3)c3ccccc3)N2C1=O (centres undefined) + CCN1C(C(=O)NC23CCC(C(=O)O)(CC2)CC3)C(c2cccc(Cl)c2F)C2(C(=O)Nc3cc(Cl)ccc32)C12CCCCC2
output: 49.5%

input: Give its viability, T/C value. Item: CCN1CCN(Cc2ccc(Nc3ncc(F)c(-c4cc(F)c5nc(C)n(C(C)C)c5c4)n3)nc2)CC1 + CCN1C(C(=O)NC23CCC(C(=O)O)(CC2)CC3)C(c2cccc(Cl)c2F)C2(C(=O)Nc3cc(Cl)ccc32)C12CCCCC2
output: 91.2%

input: Give its viability, T/C value. Item: O=C(c1cc(Cc2n[nH]c(=O)c3ccccc23)ccc1F)N1CCN(C(=O)C2CC2)CC1 + CCN1C(C(=O)NC23CCC(C(=O)O)(CC2)CC3)C(c2cccc(Cl)c2F)C2(C(=O)Nc3cc(Cl)ccc32)C12CCCCC2
output: 108%

input: Give its viability, T/C value. Item: C=C(F)C(=O)N1CCN(c2nc(OCC3CCCN3C)nc3c2CCN(c2cccc4cccc(Cl)c24)C3)CC1CC#N (centres undefined) + CCN1C(C(=O)NC23CCC(C(=O)O)(CC2)CC3)C(c2cccc(Cl)c2F)C2(C(=O)Nc3cc(Cl)ccc32)C12CCCCC2
output: 90.2%
